# assayedSystem: Fatty-acid amide hydrolase 1 (Rattus norvegicus, UniProt P97612)
# Sequence (P97612 whole entry): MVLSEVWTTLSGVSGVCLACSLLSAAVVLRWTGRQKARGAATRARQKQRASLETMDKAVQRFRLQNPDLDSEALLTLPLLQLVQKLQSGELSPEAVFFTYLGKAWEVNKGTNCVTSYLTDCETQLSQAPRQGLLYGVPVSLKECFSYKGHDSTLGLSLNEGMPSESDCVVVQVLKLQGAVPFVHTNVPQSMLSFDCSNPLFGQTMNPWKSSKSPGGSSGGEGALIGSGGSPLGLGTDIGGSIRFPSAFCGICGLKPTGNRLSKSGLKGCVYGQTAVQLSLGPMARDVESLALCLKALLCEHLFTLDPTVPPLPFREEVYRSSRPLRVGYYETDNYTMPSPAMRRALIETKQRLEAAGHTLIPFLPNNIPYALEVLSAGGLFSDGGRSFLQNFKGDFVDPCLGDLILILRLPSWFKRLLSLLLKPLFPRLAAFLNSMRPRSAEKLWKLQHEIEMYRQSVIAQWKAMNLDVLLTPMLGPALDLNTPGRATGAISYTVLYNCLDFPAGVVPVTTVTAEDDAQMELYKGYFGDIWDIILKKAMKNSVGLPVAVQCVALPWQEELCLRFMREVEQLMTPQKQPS
# assay: Inhibition of FAAH in rat brain membranes assessed as hydrolysis of [14C]-anandamide preincubated for 20 mins before [14C]-anandamide addition measured after 30 mins
# Type: cell membranes
So basically, if IC50 comes in under 300 nM it's Satisfied, and if it's 300 nM or more it's Not satisfied.

# TODO verify IC50 < 300 nM strictly for this compound: "CCCCNC(=O)Oc1cccc(CN(C)CCCOc2ccc3c(=O)cc(-c4ccccc4)oc3c2)c1"
Not satisfied

I'd appreciate it if you could check whether "CCCCCCNC(=O)Oc1cccc(CN(C)CCCOc2ccc3c(=O)c4ccccc4oc3c2)c1" has IC50 smaller than 300 nM.
Satisfied

Threshold test, IC50 < 300 nM: "CCCCCCCNC(=O)Oc1cccc(CN(C)CCCOc2ccc3ccc(=O)oc3c2)c1"
Satisfied

Below 300 nM on IC50? Entry "CCCCCCCNC(=O)Oc1cccc(CN(C)CCCOc2ccc3c(=O)c4cccnc4oc3c2)c1"
Not satisfied

Given the entry "CN(CCCOc1ccc2ccc(=O)oc2c1)Cc1cccc(OC(=O)NCCCCCCCN2CCOCC2)c1" , would its reported IC50 be below 300 nM?
Not satisfied

Would you kindly verify if IC50 of "CCCCCCCNC(=O)Oc1cccc(CN(C)CCCOc2ccc3c(=O)c4ccccc4oc3c2)c1" is strictly less than 300 nM?
Satisfied

Further cases:
is_below(IC50, 300 nM) for "CCCCNC(=O)Oc1cccc(CN(C)CCCOc2ccc3c(=O)c4cccnc4oc3c2)c1" ?
Not satisfied

IC50 under 300 nM? Item: "CN(CCCOc1ccc2c(=O)c3cccnc3oc2c1)Cc1cccc(OC(=O)NCCCCCCCN2CCOCC2)c1"
Not satisfied

Answer whether the compound "CN(CCCOc1ccc2c(=O)c3cccnc3oc2c1)Cc1cccc(OC(=O)NCCCCCc2ccccc2)c1" has IC50 strictly less than 300 nM
Satisfied

Regarding "CCCNC(=O)Oc1cccc(CN(C)CCCOc2ccc3c(=O)c4ccccc4oc3c2)c1" , kindly confirm whether its IC50 is beneath 300 nM.
Satisfied

Hello, is IC50 of the following compound strictly smaller than 300 nM? "CN(CCCOc1ccc2ccc(=O)oc2c1)Cc1cccc(OC(=O)NCCCCCc2ccccc2)c1"
Satisfied

----------
# assayedSystem: UniProt:O00519
# Sequence (O00519 whole entry): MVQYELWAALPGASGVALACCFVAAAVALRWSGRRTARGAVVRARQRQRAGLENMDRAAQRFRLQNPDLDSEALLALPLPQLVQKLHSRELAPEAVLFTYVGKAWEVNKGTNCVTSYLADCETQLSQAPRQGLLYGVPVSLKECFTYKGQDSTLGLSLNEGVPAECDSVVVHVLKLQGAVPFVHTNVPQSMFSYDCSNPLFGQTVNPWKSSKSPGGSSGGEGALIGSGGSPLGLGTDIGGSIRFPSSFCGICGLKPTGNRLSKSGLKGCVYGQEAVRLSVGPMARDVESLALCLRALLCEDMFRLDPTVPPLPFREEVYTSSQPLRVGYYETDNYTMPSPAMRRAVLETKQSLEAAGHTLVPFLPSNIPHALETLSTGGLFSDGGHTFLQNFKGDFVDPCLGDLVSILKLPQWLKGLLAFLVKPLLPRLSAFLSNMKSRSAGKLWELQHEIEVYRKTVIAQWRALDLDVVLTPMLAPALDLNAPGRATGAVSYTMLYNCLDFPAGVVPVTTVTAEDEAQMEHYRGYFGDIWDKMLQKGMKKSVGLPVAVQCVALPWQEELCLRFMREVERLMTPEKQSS
# assay: Inhibition of human recombinant FAAH in assessed as hydrolysis of [14C]-anandamide preincubated for 20 mins before [14C]-anandamide addition measured after 30 mins
pIC50 for assorted molecules
Remember, pIC50 is on a log scale: it is -log10 of the molar concentration.

Example cases with answers are listed next.
Please look at "CN(CCCOc1ccc2c(=O)c3cccnc3oc2c1)Cc1cccc(OC(=O)NCCCCCc2ccccc2)c1" and tell me its recorded pIC50 on UniProt:O00519.
6.28

Find the measured pIC50 of "CN(CCCOc1ccc2c(=O)c3cccnc3oc2c1)Cc1cccc(OC(=O)NCCCCCCCN2CCOCC2)c1" with UniProt:O00519 as test system.
4.41

For UniProt:O00519, give the measured pIC50 of the entry "CN(CCCOc1ccc2ccc(=O)oc2c1)Cc1cccc(OC(=O)NCCCCCCCN2CCOCC2)c1"
4.83

// next entry
Under UniProt:O00519: report pIC50 of "CN(CCCOc1ccc2ccc(=O)oc2c1)Cc1cccc(OC(=O)NCCCCCc2ccccc2)c1" .
5.65
